Values compiled from ChEMBL document CHEMBL5727863.

TESTED ON: UniProt:P29597
Sequence (P29597 whole entry, the tested form may be a part): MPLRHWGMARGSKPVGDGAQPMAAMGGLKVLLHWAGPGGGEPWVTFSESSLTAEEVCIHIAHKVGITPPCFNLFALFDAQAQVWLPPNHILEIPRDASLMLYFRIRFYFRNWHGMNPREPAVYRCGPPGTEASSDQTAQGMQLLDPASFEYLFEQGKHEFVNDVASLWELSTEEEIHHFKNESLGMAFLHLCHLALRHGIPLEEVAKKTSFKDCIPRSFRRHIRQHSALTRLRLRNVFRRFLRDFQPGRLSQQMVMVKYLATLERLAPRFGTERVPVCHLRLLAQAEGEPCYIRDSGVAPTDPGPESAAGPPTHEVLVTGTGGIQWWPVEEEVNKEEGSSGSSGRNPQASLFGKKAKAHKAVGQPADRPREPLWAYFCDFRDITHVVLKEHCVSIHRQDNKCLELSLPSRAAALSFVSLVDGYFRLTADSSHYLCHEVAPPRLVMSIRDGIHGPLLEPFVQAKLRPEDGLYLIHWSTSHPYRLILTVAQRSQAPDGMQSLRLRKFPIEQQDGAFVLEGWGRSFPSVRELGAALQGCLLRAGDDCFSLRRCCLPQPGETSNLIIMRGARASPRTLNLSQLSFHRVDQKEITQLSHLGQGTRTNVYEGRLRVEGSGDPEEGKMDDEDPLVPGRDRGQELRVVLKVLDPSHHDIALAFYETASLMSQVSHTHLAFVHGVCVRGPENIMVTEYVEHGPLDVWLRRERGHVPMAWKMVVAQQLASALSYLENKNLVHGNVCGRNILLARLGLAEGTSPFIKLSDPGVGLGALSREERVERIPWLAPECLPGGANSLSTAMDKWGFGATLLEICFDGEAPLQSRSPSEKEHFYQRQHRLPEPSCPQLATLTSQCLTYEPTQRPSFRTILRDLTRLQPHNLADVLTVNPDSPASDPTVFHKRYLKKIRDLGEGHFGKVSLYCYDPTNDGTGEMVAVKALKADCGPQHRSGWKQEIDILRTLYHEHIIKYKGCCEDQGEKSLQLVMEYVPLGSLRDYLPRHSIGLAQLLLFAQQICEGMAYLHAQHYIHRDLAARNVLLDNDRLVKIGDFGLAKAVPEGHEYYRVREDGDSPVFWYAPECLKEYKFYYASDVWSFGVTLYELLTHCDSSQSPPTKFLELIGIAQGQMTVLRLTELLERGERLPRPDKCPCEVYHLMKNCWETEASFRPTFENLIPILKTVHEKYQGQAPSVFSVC
ASSAY SUMMARY: In Vitro Assays for Determining the Inhibition of Janus Kinases: The in vitro inhibition of recombinant human JAKs was determined as follow.Compounds were tested in LANTHASCREEN™ time-resolved fluorescence energy transfer (TR-FRET) enzymatic assays from Invitrogen. The human Janus kinase 1 (JAK1) used in the assay is the recombinant JAK1 catalytic domain (amino acids 866-1154) expressed and purified from insect cells (Invitrogen, Cat. No. PV4774). The human Janus kinase 2 (JAK2) used in the assay is the recombinant JAK2 catalytic domain (amino acids 808-1132) expressed and purified from insect cells (Invitrogen, Cat. No. PV4210). The human Janus kinase 3 (JAK3) used in the assay is the recombinant JAK3 catalytic domain (amino acids 781-1124) expressed and purified from insect cells (Invitrogen, Cat. No. PV3855). The human tyrosine kinase 2 (TYK2) used in the assay is the recombinant TYK2 catalytic domain (amino acids 833-1187) expressed and purified from insect cells (Invitrogen, Cat. No. PV4790). The substrate is a recombinant STAT1 expressed as a fusion with GFP (Green Fluorescent Protein) to act as a physiological substrate (Invitrogen, Cat. No. PV5211).Test compounds were prepared and diluted in DMSO in 3-fold serial dilutions for 10 doses to 100× of the final testing concentrations. The compounds were then further diluted to 4× by the kinase reaction buffer (Invitrogen, Cat. No. PV3189). The enzymatic reaction for compound testing was performed in a white 384-well polypropylene plate (Packard, Cat. No. 6005214) with a total reaction volume of 10 μL containing 440 ng/mL JAK1, 11 ng/mL JAK2, 400 ng/mL JAK3, or 200 ng/mL TYK2, 100 nM substrate, and 1 mM ATP. The assay started with loading 2.5 μL of JAK1, JAK2, JAK3, or TYK2 diluted in the kinase reaction buffer to wells, followed by addition of an equal volume of 4× compounds for 15-min incubation at room temperature for pre-treatment. The enzymatic reaction was initiated by addition of 5 μL of a mixture of the substrate and ATP prepared in the kinase reaction buffer. After one hour reaction, 10 μL mixture of EDTA (final 10 mM) and terbium-labeled anti-pSTAT1 (pTyr701) antibody (final 2 nM) (Invitrogen, Cat. No. PV4844) prepared in TR-FRET antibody dilution buffer (Invitrogen, Cat. No. PV3574) was added to stop the enzymatic reaction and produce TR-FRET signals. After 30 minutes of incubation at room temperature, the plate was read in Tecan Infinite F200 Pro with the following settings: Excitation 340 nm (30)/Emission1 495 nm (10)/Emission2 520 nm (25). The TR-FRET values were dimensionless numbers that were calculated as the ratio of the acceptor (Green Fluorescent Protein) signal to the donor (Terbium) signal. Percent of inhibition was calculated as (100%−percentage of compound-treated/DMSO vehicle-treated). The dose-response curves were generated and the IC50s were calculated by nonlinear sigmoid curve fitting using GraphPad Prism.
pIC50: −log10 of the molar value.
READOUT TYPE: pIC50

Supply measured pIC50 of N#CC1(c2ccc(-c3cccc4nc(NC(=O)C5CC5)cn34)cc2)CC1 in your reply. < 5.30
